assay system: T1, recombinant human full-length TDP-43 (TAR DNA-binding protein 43), soluble (human, UniProt Q13148 1-414)
T1 construct: Used on Luminex beads, coated on ELISA plates, and immobilized or injected in SPR; also called FL TDP-43; TDP-43 protein
T1 sequence (Q13148 whole entry): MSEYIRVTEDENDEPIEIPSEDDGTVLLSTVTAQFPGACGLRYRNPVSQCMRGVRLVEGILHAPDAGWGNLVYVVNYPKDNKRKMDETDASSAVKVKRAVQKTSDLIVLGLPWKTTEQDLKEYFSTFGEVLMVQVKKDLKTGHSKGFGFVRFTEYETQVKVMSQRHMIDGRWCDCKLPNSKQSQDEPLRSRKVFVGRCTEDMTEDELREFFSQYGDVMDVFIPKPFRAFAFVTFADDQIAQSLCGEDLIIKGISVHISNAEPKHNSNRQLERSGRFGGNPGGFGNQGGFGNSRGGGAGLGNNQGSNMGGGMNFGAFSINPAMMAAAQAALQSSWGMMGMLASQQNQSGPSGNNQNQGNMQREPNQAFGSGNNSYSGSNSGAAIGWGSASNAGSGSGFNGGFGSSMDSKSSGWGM
assay notes: SPR 8K, immobilized soluble TDP-43; IgG1
pKd: −log10 of the molar value.

{"binder": "hACI-7069-633B12-Ab1_H20L19 (IgG1) (antibody, V domains shown, Human IgG1 / kappa) VH: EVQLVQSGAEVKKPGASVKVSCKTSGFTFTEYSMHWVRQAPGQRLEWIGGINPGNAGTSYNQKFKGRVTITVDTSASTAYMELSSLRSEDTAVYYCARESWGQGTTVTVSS VL: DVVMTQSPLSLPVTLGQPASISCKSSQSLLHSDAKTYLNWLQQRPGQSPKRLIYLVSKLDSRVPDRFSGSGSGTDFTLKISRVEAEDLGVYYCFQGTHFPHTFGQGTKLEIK", "pKd": 9.63}
{"binder": "hACI-7069-633B12-Ab1_H19L18 (IgG1 isotype) (antibody, V domains shown, Human IgG1 / kappa; also called hACI-7069-633B12-Ab1_H19L18 (hIgG1 isotype)) VH: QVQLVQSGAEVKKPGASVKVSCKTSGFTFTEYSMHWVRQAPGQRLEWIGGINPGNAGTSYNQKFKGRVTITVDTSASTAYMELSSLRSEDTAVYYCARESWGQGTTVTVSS VL: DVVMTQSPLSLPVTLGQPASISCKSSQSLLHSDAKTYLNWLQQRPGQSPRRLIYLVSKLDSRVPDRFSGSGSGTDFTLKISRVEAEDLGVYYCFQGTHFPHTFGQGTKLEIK", "pKd": 9.69}
{"binder": "hACI-7069-633B12-Ab1_H16L14 (IgG1) (antibody, V domains shown, Human IgG1 / kappa) VH: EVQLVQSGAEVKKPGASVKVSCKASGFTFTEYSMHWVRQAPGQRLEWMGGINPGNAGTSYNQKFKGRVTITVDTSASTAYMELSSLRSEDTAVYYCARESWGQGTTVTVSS VL: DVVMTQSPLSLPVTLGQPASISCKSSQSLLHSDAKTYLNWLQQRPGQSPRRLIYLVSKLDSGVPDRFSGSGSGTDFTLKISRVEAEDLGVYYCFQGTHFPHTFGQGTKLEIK", "pKd": 9.19}
{"binder": "hACI-7069-633B12-Ab1_H15L18 (IgG1) (antibody, V domains shown, Human IgG1 / kappa) VH: QVQLVQSGAEVKKPGASVKVSCKASGFTFTEYSMHWVRQAPGQRLEWMGGINPGNAGTSYNQKFKGRVTITVDTSASTAYMELSSLRSEDTAVYYCARESWGQGTTVTVSS VL: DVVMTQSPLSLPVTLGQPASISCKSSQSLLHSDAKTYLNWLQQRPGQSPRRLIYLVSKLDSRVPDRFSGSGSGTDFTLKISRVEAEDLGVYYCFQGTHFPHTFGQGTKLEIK", "pKd": 9.95}
